assay: logP by HPLC (EEC Directive 79/831 Annex V. A8, gradient method); format: physicochemical; conditions: acetonitrile/0.1% aqueous phosphoric acid
Entries and their measured chromatographic logP follow.

compound: CCN(CC)S(=O)(=O)n1c(Oc2ccc(Cl)cc2)noc1=O
chromatographic logP: 3.53
//
compound: CCN(CC)S(=O)(=O)n1c(Oc2ccc(Oc3ccccc3)cc2)noc1=O
chromatographic logP: 4.19
//
compound: CN(C)S(=O)(=O)n1c(Oc2ccc(-c3ccccc3)cc2)noc1=O
chromatographic logP: 3.56
//
compound: CCN(CC)S(=O)(=O)n1c(Oc2c(C)cccc2C)noc1=O
chromatographic logP: 3.64
//
compound: Cc1ccc(S(=O)(=O)n2c(Oc3cc(C)ccc3C)noc2=O)cc1
chromatographic logP: 3.93
//
compound: COc1cccc(Oc2noc(=O)n2S(=O)(=O)N(C)C)c1OC
chromatographic logP: 2.58
//
compound: CCN(C)S(=O)(=O)n1c(Oc2ccc(Oc3ccccc3)cc2)noc1=O
chromatographic logP: 3.83
//
compound: CCN(CC)S(=O)(=O)n1c(Oc2ccc3c(c2)CCC3)noc1=O
chromatographic logP: 3.88
//
compound: COc1cccc(OC)c1Oc1noc(=O)n1S(=O)(=O)N(C)C
chromatographic logP: 2.51

---

assay: logP by HPLC (EEC Directive 79/831 Annex V. A8, gradient method); type: physicochemical; conditions: acetonitrile/0.1% aqueous phosphoric acid

compound: CCS(=O)(=O)n1c(Oc2ccc(C)cc2C)noc1=O [Example 14]
chromatographic logP: 2.95
//
compound: Cc1ccc(Oc2noc(=O)n2S(=O)(=O)N(C)C)cc1C [Example 16]
chromatographic logP: 3.15
//
compound: CCN(CC)S(=O)(=O)n1c(Oc2cccc(C(=O)OC)c2)noc1=O [Example 37]
chromatographic logP: 3.09
//
compound: COc1ccc(Oc2noc(=O)n2S(=O)(=O)N(C)C)cc1 [Example 13]
chromatographic logP: 2.5
//
compound: CCN(CC)S(=O)(=O)n1c(Oc2cc(C)ccc2C)noc1=O [Example 35]
chromatographic logP: 3.7
//
compound: Cc1cccc(Oc2noc(=O)n2S(=O)(=O)N(C)C)c1C [Example 30]
chromatographic logP: 3.04
//
compound: CCN(CC)S(=O)(=O)n1c(Oc2cccc(C)c2)noc1=O [Example 43]
chromatographic logP: 3.42
//
compound: Cc1ccc(S(=O)(=O)n2c(Oc3ccc(F)cc3)noc2=O)cc1 [Example 6]
chromatographic logP: 3.39
//
compound: COC(=O)c1cccc(Oc2noc(=O)n2S(=O)(=O)N(C)C)c1 [Example 34]
chromatographic logP: 2.54

---

Experiment: logP by HPLC (EEC Directive 79/831 Annex V. A8, gradient method)
Assay type: physicochemical
Conditions: acetonitrile/0.1% aqueous phosphoric acid
Method: In Table 1, Me represents methyl. The logP values were determined in accordance with EEC Directive 79/831 Annex V. A8 by HPLC (gradient method, acetonitrile/0.1% aqueous phosphoric acid).
chromatographic logP strictly under 3 means Satisfied; at 3 or over means Not satisfied.

compound: CCN(CC)S(=O)(=O)n1c(Oc2cccc(C)c2C)noc1=O [Example 36]
label-class: Not satisfied

compound: Cc1ccc(Oc2noc(=O)n2S(C)(=O)=O)c(C)c1 [Example 10]
label-class: Satisfied

compound: CCN(CC)S(=O)(=O)n1c(Oc2ccccc2C)noc1=O [Example 29]
label-class: Not satisfied

compound: Cc1ccc(C)c(Oc2noc(=O)n2S(C)(=O)=O)c1 [Example 8]
label-class: Satisfied

compound: CN(C)S(=O)(=O)n1c(Oc2ccc3c(c2)CCC3)noc1=O [Example 57]
label-class: Not satisfied

compound: CN(C)S(=O)(=O)n1c(Oc2ccccc2-c2ccccc2)noc1=O [Example 61]
label-class: Not satisfied

compound: CCN(CC)S(=O)(=O)n1c(Oc2ccc(OC)cc2)noc1=O [Example 44]
label-class: Not satisfied

compound: CN(C)S(=O)(=O)n1c(Oc2cccc(C(F)(F)F)c2)noc1=O [Example 21]
label-class: Not satisfied

compound: CCN(CC)S(=O)(=O)n1c(Oc2cccc(OC)c2)noc1=O [Example 28]
label-class: Not satisfied

compound: CCN(CC)S(=O)(=O)n1c(Oc2ccc(F)cc2)noc1=O [Example 50]
label-class: Not satisfied

compound: CCN(CC)S(=O)(=O)n1c(Oc2ccc(C)cc2)noc1=O [Example 45]
label-class: Not satisfied

compound: Cc1cccc(Oc2noc(=O)n2S(=O)(=O)N(C)C)c1 [Example 20]
label-class: Satisfied

compound: CN(C)S(=O)(=O)n1c(Oc2ccc(OC(F)(F)F)cc2)noc1=O [Example 52]
label-class: Not satisfied

compound: CCN(CC)S(=O)(=O)n1c(Oc2cccc(OC)c2OC)noc1=O [Example 49]
label-class: Not satisfied

compound: CCN(CC)S(=O)(=O)n1c(Oc2cc(C)cc(C)c2)noc1=O [Example 33]
label-class: Not satisfied
